tested on: Hs578T multi-cell spheroids, viability; assay: Anticancer human tumor Hs578T cell line growth inhibition [IpAb]; settings: second compound 0.316 µM; first compound 0.316 µM; active compounds read low;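 further: drug exposure lasted 7 days before readout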
Would you mind telling me the reported viability, T/C of each entry?
Please state the figure in %; there is no need to write the unit.

Report viability, T/C for C=CC(=O)N1CCN(c2nc(=O)n(-c3c(C)ccnc3C(C)C)c3nc(-c4c(O)cccc4F)c(F)cc23)C(C)C1 (centres undefined) + CC(C)NCC(C(=O)N1CCN(c2ncnc3c2C(C)CC3O)CC1)c1ccc(Cl)cc1 please.
90.1

I am curious: what viability, T/C value has been reported for CC1(C)CCC(CN2CCN(c3ccc(C(=O)NS(=O)(=O)c4ccc(NCC5CCOCC5)c([N+](=O)[O-])c4)c(Oc4cnc5[nH]ccc5c4)c3)CC2)=C(c2ccc(Cl)cc2)C1 + CC(C)NCC(C(=O)N1CCN(c2ncnc3c2C(C)CC3O)CC1)c1ccc(Cl)cc1 ?
89.2

Give the measured viability, T/C of Cc1nc(NC(=O)N2CCCC2C(N)=O)sc1-c1ccnc(C(C)(C)C(F)(F)F)c1 (centres undefined) + CCN1CCN(Cc2ccc(Nc3ncc(F)c(-c4cc(F)c5nc(C)n(C(C)C)c5c4)n3)nc2)CC1 .
60.4

Given CCCS(=O)(=O)Nc1ccc(F)c(C(=O)c2c[nH]c3ncc(-c4ccc(Cl)cc4)cc23)c1F + CC(C)NCC(C(=O)N1CCN(c2ncnc3c2C(C)CC3O)CC1)c1ccc(Cl)cc1 , state its recorded viability, T/C.
88.3
